# Measured Target: Eukaryotic translation initiation factor 4E-binding protein 1 (Homo sapiens)
# Measurement Notes: Inhibition of 4E-BP1 phosphorylation in human HCT116 cells at 2 uM after 6 hrs by Western blot analysis
# Assay type: cell-based
# Test Settings: HCT-116
The source made the active and inactive calls. The calls are words filed in the database; no cut-off is given here.
I would appreciate it if you answered using one of these outcomes: yes (1) for active, no (0) for inactive

*Q* How was Cc1cc(O)c2c3c(ccc2c1)C(=O)c1c(O[C@H]2C[C@@H](O)[C@H](O[C@H]4C[C@@H](O[C@H]5CC[C@H](O[C@H]6CC[C@H](O[C@H]7C[C@@H](O[C@H]8CC[C@H](O)[C@H](C)O8)[C@H](O)[C@@H](C)O7)[C@@H](C)O6)[C@H](C)O5)[C@H](O)[C@@H](C)O4)[C@@H](C)O2)cccc1C3=O classified in this test?
*A* yes (1)

*Q* How was COc1cccc2c1C(=O)C1=C(C2=O)c2c(O)cc(C)cc2[C@@H](O)[C@H]1O classified in this test?
*A* no (0)

----------
# Measurement Notes: Toxicity in axolotl embryo at 10 uM after 7 days by tail regeneration assay
# Test Settings: ambystoma mexicanum, 168 h, time 7 day
Measured Property: Activity

>>> measured_value("Cc1cc(O)c2c(c1)C[C@@H](O)C1=C2C(=O)c2cccc(O[C@H]3C[C@@H](O)[C@H](O[C@H]4C[C@@H](O[C@H]5CC[C@H](O[C@H]6C[C@@H](O)[C@H](O[C@H]7C[C@@H](O)[C@H](O)[C@@H](C)O7)[C@@H](C)O6)[C@H](C)O5)[C@H](O)[C@@H](C)O4)[C@@H](C)O3)c2C1=O [LANDOMYCIN V]")
"Toxic"
>>> measured_value("Cc1cc(O)c2c3c(ccc2c1)C(=O)c1c(O[C@H]2C[C@@H](O)[C@H](O[C@H]4C[C@@H](O)[C@H](O)[C@@H](C)O4)[C@@H](C)O2)cccc1C3=O [LANDOMYCIN O]")
"Toxic"
>>> measured_value("C[C@@H]1O[C@H]2O[C@H]3[C@@H](C)O[C@@H](c4ccc5c(c4O)C(=O)C4=C(C5=O)[C@@]5(O)C(=O)C[C@](C)(O)C[C@@]5(O)C=C4)C[C@H]3O[C@H]2CC1=O")
"Non-Toxic"
>>> measured_value("C[C@@H]1O[C@@H](O[C@@H]2C[C@H](c3ccc4c(c3O)C(=O)C3=C(C4=O)[C@@]4(O[C@H]5CC[C@H](O)[C@H](C)O5)C(=O)C[C@](C)(O)C[C@@]4(O)C=C3)O[C@H](C)[C@H]2O)CC[C@@H]1O[C@H]1C[C@@H](O)[C@H](O)[C@@H](C)O1")
"Non-Toxic"

----------
# Measurement Notes: Toxicity in axolotl embryo at 10 uM after 7 days by tail regeneration assay
# Test Settings: ambystoma mexicanum, 168 h, time 7 day
Measured Property: Activity

>>> measured_value("COc1cccc2c1C(=O)C1=C(C2=O)c2c(O)cc(C)cc2[C@@H](O)[C@H]1O")
"Non-Toxic"
>>> measured_value("C[C@@H]1O[C@@H](O[C@H]2CC[C@H](O[C@@]3(C)CC(=O)[C@]4(O)C5=C(C=C[C@]4(O)C3)C(=O)c3c(ccc([C@H]4C[C@@H](O)[C@H](O[C@@H]6O[C@@H](C)C(=O)C=C6N)[C@@H](C)O4)c3O)C5=O)O[C@H]2C)C=CC1=O")
"Non-Toxic"
>>> measured_value("C[C@@H]1O[C@H]2O[C@H]3[C@@H](C)O[C@@H](c4ccc5c(c4O)C(=O)C4=C(C5=O)[C@@]5(O)C(=O)C[C@](C)(O[C@H]6CC[C@H](O[C@H]7CC[C@H](O)[C@H](C)O7)[C@H](C)O6)C[C@@]5(O)C=C4)C[C@H]3O[C@H]2CC1=O")
"Non-Toxic"
>>> measured_value("Cc1cc(O)c2c3c(ccc2c1)C(=O)c1c(O[C@H]2C[C@@H](O)[C@H](O[C@H]4C[C@@H](O[C@H]5CC[C@H](O[C@H]6C[C@@H](O)[C@H](O[C@H]7C[C@@H](O)[C@H](O)[C@@H](C)O7)[C@@H](C)O6)[C@H](C)O5)[C@H](O)[C@@H](C)O4)[C@@H](C)O2)cccc1C3=O")
"Toxic"
>>> measured_value("C[C@@H]1O[C@@H](O[C@H]2CC[C@H](O[C@@]3(C)CC(=O)[C@]4(O)C5=C(C=C[C@]4(O)C3)C(=O)c3c(ccc([C@H]4C[C@@H](O)[C@H](O)[C@@H](C)O4)c3O)C5=O)O[C@H]2C)C=CC1=O")
"Non-Toxic"

For the next question, use this compound.
Lab note: measured Activity of C[C@@H]1O[C@@H](O[C@H]2CC[C@H](O[C@@]3(C)CC(=O)[C@]4(O)C5=C(C=C[C@]4(O)C3)C(=O)c3c(ccc([C@H]4C[C@H]6O[C@H]7CC(=O)[C@H](C)O[C@H]7O[C@H]6[C@@H](C)O4)c3O)C5=O)O[C@H]2C)C(N)=CC1=O was Non-Toxic

----------
pIC50 values, listed per item
# Test system: A549
# Measurement Notes: Cytotoxicity against human A549 cells assessed as reduction in cell viability after 72 hrs by resazurin dye based fluorescence analysis
# Type: functional
# Test Settings: A549, 72 h
pIC50: −log10 of the molar value.

A549 assay, compound Cc1cc(O)c2c3c(ccc2c1)C(=O)c1c(O[C@H]2C[C@@H](O)[C@H](O[C@H]4C[C@@H](O[C@H]5CC[C@H](O[C@H]6CC[C@H](O[C@H]7C[C@@H](O[C@H]8CC[C@H](O)[C@H](C)O8)[C@H](O)[C@@H](C)O7)[C@@H](C)O6)[C@H](C)O5)[C@H](O)[C@@H](C)O4)[C@@H](C)O2)cccc1C3=O , recorded pIC50 = > 6.30

A549 assay, compound C[C@@H]1O[C@@H](O[C@H]2[C@H](O)C[C@H](c3ccc4c(c3O)C(=O)C3=C(C4=O)[C@@]4(O)C(=O)C[C@](C)(O[C@H]5CC[C@H](O[C@H]6C=CC(=O)[C@H](C)O6)[C@H](C)O5)C[C@@]4(O)C=C3)O[C@@H]2C)C=CC1=O , recorded pIC50 = > 6.30

----------
# System: A549
# Measurement Notes: Cytotoxicity against human A549 cells assessed as reduction in cell viability after 72 hrs by resazurin dye based fluorescence analysis
# Assay type: functional
# Test Settings: A549, 72 h
pIC50: −log10 of the molar value.
pIC50 values, listed per item

Guide cases for pIC50, answers given:
>>> measured_value("C[C@@H]1O[C@@H](O[C@H]2CC[C@H](O[C@@]3(C)CC(=O)[C@]4(O)C5=C(C=C[C@]4(O)C3)C(=O)c3c(ccc([C@H]4C[C@H]6O[C@H]7CC(=O)[C@H](C)O[C@H]7O[C@H]6[C@@H](C)O4)c3O)C5=O)O[C@H]2C)C=CC1=O")
"> 6.30"
>>> measured_value("Cc1cc(O)c2c(c1)C[C@@H](O)C1=C2C(=O)c2cccc(O[C@H]3C[C@@H](O)[C@H](O[C@H]4C[C@@H](O[C@H]5CC[C@H](O[C@H]6CC[C@H](O[C@H]7C[C@@H](O[C@H]8CC[C@H](O)[C@H](C)O8)[C@H](O)[C@@H](C)O7)[C@@H](C)O6)[C@H](C)O5)[C@H](O)[C@@H](C)O4)[C@@H](C)O3)c2C1=O")
"> 6.30"
>>> measured_value("Cc1cc(O)c2c(c1)C[C@@H](O)C1=C2C(=O)c2c(O)ccc(O[C@H]3C[C@@H](O)[C@H](O[C@H]4C[C@@H](O[C@H]5CC[C@H](O[C@H]6C[C@@H](O)[C@H](O[C@H]7C[C@@H](O[C@H]8CC[C@H](O)[C@H](C)O8)[C@H](O)[C@@H](C)O7)[C@@H](C)O6)[C@H](C)O5)[C@H](O)[C@@H](C)O4)[C@@H](C)O3)c2C1=O [LANDOMYCIN A]")
"> 6.30"

Lab note: measured pIC50 of C[C@@H]1O[C@H]2O[C@H]3[C@@H](C)O[C@@H](c4ccc5c(c4O)C(=O)C4=C(C5=O)[C@@]5(O)C(=O)C[C@](C)(O[C@H]6CC[C@H](O[C@H]7CC[C@H](O)[C@H](C)O7)[C@H](C)O6)C[C@@]5(O)C=C4)C[C@H]3O[C@H]2CC1=O was > 6.30

Lab note: measured pIC50 of COc1cccc2c1C(=O)C1=C(C2=O)c2c(O)cc(C)cc2[C@@H](O)[C@H]1O was 5.73

Lab note: measured pIC50 of C[C@@H]1O[C@@H](O[C@H]2CC[C@H](O[C@@]3(C)CC(=O)[C@]4(O)C5=C(C=C[C@]4(O)C3)C(=O)c3c(ccc([C@H]4C[C@@H](O)[C@H](O[C@H]6CC[C@H](O)[C@H](C)O6)[C@@H](C)O4)c3O)C5=O)O[C@H]2C)C=CC1=O [SAQUAYAMYCIN K] was > 6.30

Data provenance is ChEMBL document CHEMBL4811313.
